Reported values of SK-Br-3 proliferation IC50 for individual entries
# Assay Target: Human HER3, endogenous, on human cancer cell lines (SK-Br-3, MCF7, BT-474) (human, UniProt P21860 20-1342)
# Sequence (P21860 20-1342): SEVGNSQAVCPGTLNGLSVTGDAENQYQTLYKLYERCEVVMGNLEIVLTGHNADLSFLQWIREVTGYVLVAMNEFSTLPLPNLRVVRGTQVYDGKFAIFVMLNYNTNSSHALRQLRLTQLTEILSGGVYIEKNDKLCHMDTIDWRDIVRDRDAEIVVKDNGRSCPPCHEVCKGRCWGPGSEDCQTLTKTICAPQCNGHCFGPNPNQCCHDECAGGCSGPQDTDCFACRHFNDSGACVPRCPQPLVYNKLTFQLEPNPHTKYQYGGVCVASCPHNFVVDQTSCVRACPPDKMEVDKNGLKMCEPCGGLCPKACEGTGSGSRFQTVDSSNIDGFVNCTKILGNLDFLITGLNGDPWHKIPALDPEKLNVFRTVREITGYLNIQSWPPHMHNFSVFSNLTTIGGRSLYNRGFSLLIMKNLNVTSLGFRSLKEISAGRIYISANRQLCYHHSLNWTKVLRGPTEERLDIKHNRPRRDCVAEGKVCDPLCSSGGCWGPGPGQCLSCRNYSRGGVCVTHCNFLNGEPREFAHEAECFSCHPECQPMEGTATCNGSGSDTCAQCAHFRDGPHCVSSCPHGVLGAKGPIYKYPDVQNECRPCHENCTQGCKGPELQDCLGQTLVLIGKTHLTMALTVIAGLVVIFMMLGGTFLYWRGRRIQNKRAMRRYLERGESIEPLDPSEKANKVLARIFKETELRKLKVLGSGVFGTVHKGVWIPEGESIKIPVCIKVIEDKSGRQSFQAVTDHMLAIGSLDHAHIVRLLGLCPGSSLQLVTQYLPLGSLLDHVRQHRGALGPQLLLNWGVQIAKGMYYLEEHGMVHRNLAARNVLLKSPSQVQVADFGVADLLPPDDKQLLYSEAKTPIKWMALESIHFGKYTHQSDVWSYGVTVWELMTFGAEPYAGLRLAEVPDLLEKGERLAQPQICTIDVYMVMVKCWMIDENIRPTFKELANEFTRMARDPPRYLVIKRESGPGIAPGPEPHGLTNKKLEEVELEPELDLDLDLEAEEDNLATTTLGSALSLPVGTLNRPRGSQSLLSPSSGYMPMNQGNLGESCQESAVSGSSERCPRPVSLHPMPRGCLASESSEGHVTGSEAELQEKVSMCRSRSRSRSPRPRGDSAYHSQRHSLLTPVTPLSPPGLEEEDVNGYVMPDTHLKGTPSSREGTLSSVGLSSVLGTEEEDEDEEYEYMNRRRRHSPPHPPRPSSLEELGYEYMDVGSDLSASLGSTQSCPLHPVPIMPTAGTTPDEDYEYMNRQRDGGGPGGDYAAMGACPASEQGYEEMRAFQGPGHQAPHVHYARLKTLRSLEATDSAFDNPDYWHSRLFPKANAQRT
# Assay Remarks: cell-based or functional assay
Give the number; nM is assumed, so skip it.

MOR13871 (antibody, human IgG1, kappa, V domains shown, tested as IgG) VH: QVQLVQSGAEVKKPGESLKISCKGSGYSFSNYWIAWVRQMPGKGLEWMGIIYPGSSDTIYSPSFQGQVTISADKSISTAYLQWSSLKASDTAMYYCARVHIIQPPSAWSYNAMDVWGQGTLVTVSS VL: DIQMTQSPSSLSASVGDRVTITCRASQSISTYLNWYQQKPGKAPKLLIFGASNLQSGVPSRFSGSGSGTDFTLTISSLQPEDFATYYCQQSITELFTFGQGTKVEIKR; 1.29

What the record says about MOR13867 (antibody, human IgG1, kappa, V domains shown, tested as IgG) VH: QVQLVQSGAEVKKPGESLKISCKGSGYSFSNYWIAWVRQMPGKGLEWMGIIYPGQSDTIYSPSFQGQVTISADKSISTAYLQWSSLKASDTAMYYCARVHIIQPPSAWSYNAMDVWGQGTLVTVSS VL: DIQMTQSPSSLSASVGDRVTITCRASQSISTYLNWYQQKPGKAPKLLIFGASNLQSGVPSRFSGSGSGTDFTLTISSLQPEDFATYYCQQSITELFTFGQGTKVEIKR : SK-Br-3 proliferation IC50 is 0.31
